# SYSTEM UNDER TEST: T1, EsCas13d, nuclease-dead (Eubacterium siraeum, UniProt B0MS50, R295A;H300A;R849A;H854A)
# T1 sequence: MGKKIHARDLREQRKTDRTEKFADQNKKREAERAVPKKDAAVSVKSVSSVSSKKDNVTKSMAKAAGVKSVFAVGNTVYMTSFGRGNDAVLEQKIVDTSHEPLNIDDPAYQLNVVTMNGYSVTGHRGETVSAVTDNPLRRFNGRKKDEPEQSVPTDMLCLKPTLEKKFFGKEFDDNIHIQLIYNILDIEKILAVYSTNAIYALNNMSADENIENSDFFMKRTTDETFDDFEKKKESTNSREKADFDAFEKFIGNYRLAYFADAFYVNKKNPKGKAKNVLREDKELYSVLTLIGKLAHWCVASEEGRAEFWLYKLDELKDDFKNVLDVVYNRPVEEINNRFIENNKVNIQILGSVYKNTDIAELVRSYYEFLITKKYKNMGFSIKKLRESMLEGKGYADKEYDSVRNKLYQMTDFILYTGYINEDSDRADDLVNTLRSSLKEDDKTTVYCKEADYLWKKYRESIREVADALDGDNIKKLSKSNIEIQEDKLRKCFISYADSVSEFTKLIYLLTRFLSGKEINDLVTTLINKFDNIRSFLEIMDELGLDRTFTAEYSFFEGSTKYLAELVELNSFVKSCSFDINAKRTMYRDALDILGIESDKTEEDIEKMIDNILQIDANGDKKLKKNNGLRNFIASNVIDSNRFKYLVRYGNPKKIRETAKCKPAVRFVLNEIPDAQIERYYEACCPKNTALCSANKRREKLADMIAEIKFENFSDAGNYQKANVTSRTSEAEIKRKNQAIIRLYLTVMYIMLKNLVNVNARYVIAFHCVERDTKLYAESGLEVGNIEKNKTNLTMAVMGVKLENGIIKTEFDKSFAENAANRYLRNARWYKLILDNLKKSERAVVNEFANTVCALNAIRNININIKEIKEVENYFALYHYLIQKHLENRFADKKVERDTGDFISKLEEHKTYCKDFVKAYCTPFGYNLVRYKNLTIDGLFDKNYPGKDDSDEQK
# MEASUREMENT NOTES: crRNA (strand 1, pre-loaded); Mg2+; 40 mM Tris-HCl pH 7.5, 150 mM NaCl, 6 mM MgCl2, 1 mM DTT, 0.1% Tween-20, 0.2 mg/ml BSA; 25 C; 10 min per concentration, then washed
# EXPERIMENTAL PARAMETERS: tags: His6-TwinStrep-SUMO cleaved; N-terminal SNAP kept (SNAP-Surface 488); label: 3' end held by stalled T7 RNA polymerase
Kd reference
Quick note: give the figure in nM, leave out the unit.

INSERT INTO results (binder, unit_info, measured_number) VALUES
  ('target 1 insC 3'' of 3,insG 3'' of 2 (mixed) RNA 1: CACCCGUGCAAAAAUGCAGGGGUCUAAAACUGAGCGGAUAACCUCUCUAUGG RNA 2: GGGAAUGGAUCCACAUCUACGAAUUCGUACCAUAGAGAGGUUAUCCGCUCCGACCGAGAUCGGAAGAGCACACGU', 'nM', 11.6);

Q. Item target 1 insU 3' of 2,insG 3' of 2 (mixed) RNA 1: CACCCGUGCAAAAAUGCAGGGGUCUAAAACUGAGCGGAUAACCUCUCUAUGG RNA 2: GGGAAUGGAUCCACAUCUACGAAUUCGUACCAUAGAGAGGUUAUCCGCUCUGACCGAGAUCGGAAGAGCACACGU has what recorded Kd?
A. 8.6
